- targetOfAssay: FMDV 3C^pro (Foot-and-mouth disease virus)
- testName: cell-based
quantityKind: IC50 (µM)

1) O=c1cc(-c2ccc(O)c(O)c2)oc2cc(O)cc(O)c12 | 177
2) COc1ccc(-c2cc(=O)c3c(O)cc(O)c(-c4cc(-c5cc(=O)c6c(O)cc(O)cc6o5)ccc4OC)c3o2)cc1 | 39
3) CCOC(=O)/C=C/[C@H](C[C@@H]1CCNC1=O)NC(=O)[C@@H](CC(=O)[C@@H](NC(=O)c1cc(C)on1)C(C)C)Cc1ccc(F)cc1 [Rupintrivir, reference compound] | 13.5

* * *

- Test system: FMDV
- testName: organism not typed
- Type: cell-based, Foot-and-mouth-disease virus serotype A (NP05)
- experimentalSetup: BHK-21, 2 h, read-out: Post-Viral (EC50)
pEC50: −log10 of the molar value.
quantityKind: pEC50

1) COc1ccc(-c2cc(=O)c3c(O)cc(O)c(-c4cc(-c5cc(=O)c6c(O)cc(O)cc6o5)ccc4OC)c3o2)cc1 | 5.71
2) CCOC(=O)/C=C/[C@H](C[C@@H]1CCNC1=O)NC(=O)[C@@H](CC(=O)[C@@H](NC(=O)c1cc(C)on1)C(C)C)Cc1ccc(F)cc1 [Rupintrivir, reference compound] | 5.77
3) O=c1cc(-c2ccc(O)c(O)c2)oc2cc(O)cc(O)c12 | 5.00
4) NC(=O)c1ncn([C@@H]2O[C@H](CO)[C@@H](O)[C@H]2O)n1 [Ribavirin, reference compound] | 3.88

* * *

Catalogue of CC50 readings, one per entry.
- testName: in vitro
- experimentalSetup: hamster, Cytotoxicity (CC50)
quantityKind: CC50

1. NC(=O)c1ncn([C@@H]2O[C@H](CO)[C@@H](O)[C@H]2O)n1 [Ribavirin, reference compound] | > 100 µM
2. COc1cc(C2Oc3cc([C@H]4Oc5cc(O)cc(O)c5C(=O)[C@@H]4O)ccc3OC2CO)ccc1O (stereo partly shown) [Flavobin] | 45.1 µM
3. O=C/C=C/c1ccccc1 [Cinnamaldehyde] | > 100 µM
4. COc1ccc(-c2cc(=O)c3c(O)cc(O)c(-c4cc(-c5cc(=O)c6c(O)cc(O)cc6o5)ccc4OC)c3o2)cc1 [Isoginkgetin] | > 100 µM
5. O=C(/C=C/c1ccc(O)cc1)OC[C@H]1O[C@@H](Oc2c(-c3ccc(O)cc3)oc3cc(O)cc(O)c3c2=O)[C@H](O)[C@@H](O)[C@@H]1O [Tiliroside] | > 100 µM
6. O=c1cc(-c2ccc(O)cc2)oc2cc(O)cc(O)c12 [Apigenin] | 68.7 µM
7. O=C(O)[C@H]1O[C@@H](Oc2cc3oc(-c4ccccc4)cc(=O)c3c(O)c2O)[C@H](O)[C@@H](O)[C@@H]1O [Baicalin] | > 100 µM
8. O=C(/C=C/c1ccc(O)c2c1[C@H](C(=O)O)[C@@H](c1ccc(O)c(O)c1)O2)O[C@H](Cc1ccc(O)c(O)c1)C(=O)O [Lithospermic acid] | > 100 µM
9. O=c1cc(-c2ccc(O)c(O)c2)oc2cc(O)cc(O)c12 [Luteolin] | > 100 µM
10. CCOC(=O)/C=C/[C@H](C[C@@H]1CCNC1=O)NC(=O)[C@@H](CC(=O)[C@@H](NC(=O)c1cc(C)on1)C(C)C)Cc1ccc(F)cc1 [Rupintrivir, reference compound] | > 100 µM
11. COc1cc(O)c2c(=O)cc(-c3ccc(O)c(O)c3)oc2c1 [7-O-Methylluteolin] | > 100 µM
12. O=C(COc1cc(O)c2c(=O)cc(-c3ccccc3)oc2c1)c1ccc(F)cc1 [Kaempferol derivative] | > 100 µM
13. COc1ccc(-c2cc(=O)c3c(O)cc(O[C@@H]4O[C@H](CO[C@@H]5O[C@@H](C)[C@H](O)[C@@H](O)[C@H]5O)[C@@H](O)[C@H](O)[C@H]4O)cc3o2)cc1O [Diosmin] | > 100 µM

* * *

- targetOfAssay: FMDV 3C^pro (Foot-and-mouth disease virus, UniProt P03306)
- Sequence (P03306 1650-1862 limits assumed): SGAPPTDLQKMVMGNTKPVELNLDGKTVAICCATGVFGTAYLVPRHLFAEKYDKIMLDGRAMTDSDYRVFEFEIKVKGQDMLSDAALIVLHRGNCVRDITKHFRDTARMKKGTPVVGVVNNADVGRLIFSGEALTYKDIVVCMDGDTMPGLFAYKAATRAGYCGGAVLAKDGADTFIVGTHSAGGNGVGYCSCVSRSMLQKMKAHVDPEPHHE
- testName: cell-based
- experimentalSetup: read-out: IC50, cell-based protease assay
quantityKind: IC50

1) C[C@@H]1O[C@@H](Oc2cc(O)c3c(=O)c(O)c(-c4ccc(O)c(O)c4)oc3c2)[C@H](O)[C@H](O)[C@H]1O [Quercetin 7-rhamnoside] | > 200 µM

* * *

The following compounds each carry a recorded CC50 for BHK-21 cells.
quantityKind: CC50

1. COc1ccc(-c2coc3cc(O[C@@H]4O[C@H](CO)[C@@H](O)[C@H](O)[C@H]4O)ccc3c2=O)cc1O [Calycosin 7-O-glucoside] | > 100 µM
2. O=C(O[C@@H]1Cc2c(O)cc(O)cc2O[C@@H]1c1cc(O)c(O)c(O)c1)c1cc(O)c(O)c(O)c1 | > 100 µM
3. COc1ccc([C@@H]2CC(=O)c3c(O)cc(O[C@@H]4O[C@H](CO[C@@H]5O[C@@H](C)[C@H](O)[C@@H](O)[C@H]5O)[C@@H](O)[C@H](O)[C@H]4O)cc3O2)cc1O | > 100 µM
4. O=c1cc(-c2ccccc2)oc2cc(O[C@@H]3O[C@H](CO[C@@H]4O[C@H](CO)[C@@H](O)[C@H](O)[C@H]4O)[C@@H](O)[C@H](O)[C@H]3O)c(O)c(O)c12 | 85.9 µM
5. C[C@@H]1O[C@@H](Oc2cc(O)c3c(=O)c(O)c(-c4ccc(O)c(O)c4)oc3c2)[C@H](O)[C@H](O)[C@H]1O [Quercetin 7-rhamnoside] | > 100 µM
6. COc1ccc(-c2cc(=O)c3c(O)cc(O[C@@H]4O[C@H](CO[C@@H]5O[C@@H](C)[C@H](O)[C@@H](O)[C@H]5O)[C@@H](O)[C@H](O)[C@H]4O)cc3o2)cc1 | > 100 µM
